- System: human immunoglobulin E (IgE) (Homo sapiens)
- assay_procedure: fluorescence bead-binding assay (thermal elution)
- condition_set: IgE on beads; selection buffer as printed: 44.5 mM Tris base, 44.5 mM bisboronic acid (sic), 50 mM NaCl, pH 8.5; 0-100 nM DNA, room temperature, 2 h; IgE beads 3x10^4 per …
Listed here are sequences together with their documented Kd.
Answer with the value and then the unit.

[[record]]
residue_sequence = "GCCTGTTGTGAGCCTCCTGTCGAAGATGTAGGCCATCCTGTGGGGGTACGGGGCGGGCTGTGGTTTGAGCGTTTATTCTTGTCTCCC [SIGE5]"
study_target = "human immunoglobulin E (IgE) (Homo sapiens)"
result = "0.01 µM"


Attention now turns to another entry.
Q. Recorded Kd for GCCTGTTGTGAGCCTCCTGTCGAAACTAGACCGGGAGCAAAACGGCAGATTGGGGCAAGGCCGGTTGAGCGTTTATTCTTGTCTCCC [SIGE7] , please?
A. 0.018 µM
